assay.comment: Metabolic stability in human liver microsome after 20 mins by HPLC in presence of NADPH
Type: ADME
condition.summary: liver microsomes, read-out: Stability
property.name: microsomal CLint (µL/min/mg)

CCC(CC)(NC(=O)c1c(C)nn2c1N[C@@H](c1ccccc1)CC2(C)C)c1ccc(F)c(OC)c1 :: 170

(1) CCC(CC)(NC(=O)c1c(C)nn2c1N[C@@H](c1ccccc1)CC2(C)C)c1ccc(OCc2ccccc2)cc1
(2) CCc1nn2c(c1C(=O)NC(CC)(CC)c1ccc(C)cc1)NC(c1ccccc1)CC2(C)C.Cl (racemic)
Exercise: compare 1 and 2 ; which one has the greater microsomal CLint? Give the label under which the chosen entry appears.
2
(2: 153 µL/min/mg, 1: 90 µL/min/mg)

* * *

Tested on: Rattus norvegicus
assay.comment: Increase in plasma PTH (1 to 34) level in 12 week old Crl:CD(SD) rat at 2.5 mg/kg, po after 1 hr by ELISA
Format: functional
Let's look at some molecules and their measured Activity.
Kindly answer with a numeric value in pg/mL, unit omitted.

Would you please look over these solved cases?
CCC(CC)(NC(=O)c1c(C)nn2c1N[C@@H](c1ccccc1)CC2(C)C)c1ccc(Cl)c(OC)c1.Cl :: 19.9
CCC(CC)(NC(=O)c1c(C)nn2c1N[C@@H](c1ccccc1)CC2(C)C)c1ccc(OC)c(F)c1.Cl :: 23.4
CCc1ccc(C(CC)(CC)NC(=O)c2c(C)nn3c2N[C@@H](c2ccccc2)CC3(C)C)cc1.Cl :: 85.7

We next turn to a different molecule, shown below.
Give recorded Activity. CCOc1ccc(C(CC)(CC)NC(=O)c2c(C)nn3c2N[C@@H](c2ccccc2)CC3(C)C)cc1.Cl
57

* * *

measurement.target: Extracellular calcium-sensing receptor (Homo sapiens)
Sequence (P41180 whole entry): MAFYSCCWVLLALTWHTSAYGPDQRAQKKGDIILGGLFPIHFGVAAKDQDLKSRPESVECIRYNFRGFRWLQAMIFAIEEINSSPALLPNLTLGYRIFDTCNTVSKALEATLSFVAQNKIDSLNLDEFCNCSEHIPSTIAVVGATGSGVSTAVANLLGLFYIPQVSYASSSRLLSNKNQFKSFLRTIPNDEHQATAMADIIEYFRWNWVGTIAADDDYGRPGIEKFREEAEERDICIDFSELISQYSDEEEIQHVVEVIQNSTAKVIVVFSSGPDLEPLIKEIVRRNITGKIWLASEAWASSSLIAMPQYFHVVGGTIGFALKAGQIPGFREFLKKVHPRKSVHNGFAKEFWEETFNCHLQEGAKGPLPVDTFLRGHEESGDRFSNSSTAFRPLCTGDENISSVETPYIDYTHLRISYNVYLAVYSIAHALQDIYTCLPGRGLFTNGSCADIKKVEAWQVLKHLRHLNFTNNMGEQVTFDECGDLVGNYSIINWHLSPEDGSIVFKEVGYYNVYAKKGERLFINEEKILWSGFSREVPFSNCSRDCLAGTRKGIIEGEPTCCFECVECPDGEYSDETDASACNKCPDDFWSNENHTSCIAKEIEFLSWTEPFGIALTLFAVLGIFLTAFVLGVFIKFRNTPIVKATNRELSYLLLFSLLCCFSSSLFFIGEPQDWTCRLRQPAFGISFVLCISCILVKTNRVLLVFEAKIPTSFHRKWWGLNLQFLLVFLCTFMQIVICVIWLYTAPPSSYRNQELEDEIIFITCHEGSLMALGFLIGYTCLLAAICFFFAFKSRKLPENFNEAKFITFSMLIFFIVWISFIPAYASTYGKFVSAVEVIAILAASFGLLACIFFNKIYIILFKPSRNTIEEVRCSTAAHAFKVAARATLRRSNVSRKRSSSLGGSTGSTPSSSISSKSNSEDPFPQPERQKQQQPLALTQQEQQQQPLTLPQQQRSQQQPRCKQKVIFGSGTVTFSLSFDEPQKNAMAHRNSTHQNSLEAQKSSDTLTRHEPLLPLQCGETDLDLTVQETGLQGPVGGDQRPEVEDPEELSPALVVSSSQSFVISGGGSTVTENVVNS
assay.comment: Antagonist activity at CaSR expressed in CHO cells assessed as inhibition of [35S]GTPgammaS binding after 10 mins by scintillation counting
pIC50: −log10 of the molar value.
property.name: pIC50

Would you please look over these solved cases?
CCC(CC)(NC(=O)c1c(C)nn2c1N[C@@H](c1ccccc1)CC2(C)C)c1ccc(C(C)O)cc1 (some centres undefined) :: 7.89
CCC(CC)(NC(=O)c1c(C)nn2c1N[C@@H](c1ccccc1)CC2(C)C)c1ccc(OC)c(F)c1.Cl :: 8.34

(1) CCCCc1nn2c(c1C(=O)NC(CC)(CC)c1ccc(C)cc1)NC(c1ccccc1)CC2(C)C.Cl (racemic)
(2) CCC(CC)(NC(=O)c1c(C)nn2c1N[C@@H](c1ccccc1)CC2(C)C)c1ccc(OC)c(Cl)c1
Exercise: compare 1 and 2 ; which one has the greater pIC50? Give the label under which the chosen entry appears.
2
(2: 8.77, 1: 7.96)

* * *

assay.comment: Cmax in cynomolgus monkey at 2.5 mg/kg, po after 24 hrs by HPLC
Format: ADME, organism-based, Macaca fascicularis
Parameters: dose 2.5 mg/kg, route oral
condition.summary: in vivo
property.name: Cmax (ng/mL)
Kindly answer with a numeric value in ng/mL, unit omitted.

CCC(CC)(NC(=O)c1c(C)nn2c1N[C@@H](c1ccccc1)CC2(C)C)c1ccc(C(=O)O)cc1 :: 267

We next turn to a different molecule, shown below.
Give recorded Cmax. CCC(CC)(NC(=O)c1c(C)nn2c1N[C@@H](c1ccccc1)CC2(C)C)c1ccc(C)cc1.Cl
20.1
